test-system: Protein cereblon/Eukaryotic peptide chain release factor GTP-binding subunit ERF3A (Homo sapiens, UniProt Q96SW2+P15170)
Sequence (P15170 whole entry, looked up): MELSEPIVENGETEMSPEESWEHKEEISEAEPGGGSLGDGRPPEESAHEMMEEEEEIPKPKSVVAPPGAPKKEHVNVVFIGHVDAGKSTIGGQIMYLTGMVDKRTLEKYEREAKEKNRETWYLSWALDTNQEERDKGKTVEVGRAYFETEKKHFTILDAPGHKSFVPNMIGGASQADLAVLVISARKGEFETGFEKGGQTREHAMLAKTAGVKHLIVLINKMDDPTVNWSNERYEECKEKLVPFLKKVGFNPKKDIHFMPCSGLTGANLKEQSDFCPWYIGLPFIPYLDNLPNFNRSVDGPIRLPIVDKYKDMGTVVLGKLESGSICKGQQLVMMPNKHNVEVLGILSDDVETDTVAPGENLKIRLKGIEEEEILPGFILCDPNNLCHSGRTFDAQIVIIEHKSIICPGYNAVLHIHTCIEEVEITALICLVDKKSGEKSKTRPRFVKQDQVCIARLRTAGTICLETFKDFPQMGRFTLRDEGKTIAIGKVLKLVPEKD
Sequence (Q96SW2 whole entry, looked up): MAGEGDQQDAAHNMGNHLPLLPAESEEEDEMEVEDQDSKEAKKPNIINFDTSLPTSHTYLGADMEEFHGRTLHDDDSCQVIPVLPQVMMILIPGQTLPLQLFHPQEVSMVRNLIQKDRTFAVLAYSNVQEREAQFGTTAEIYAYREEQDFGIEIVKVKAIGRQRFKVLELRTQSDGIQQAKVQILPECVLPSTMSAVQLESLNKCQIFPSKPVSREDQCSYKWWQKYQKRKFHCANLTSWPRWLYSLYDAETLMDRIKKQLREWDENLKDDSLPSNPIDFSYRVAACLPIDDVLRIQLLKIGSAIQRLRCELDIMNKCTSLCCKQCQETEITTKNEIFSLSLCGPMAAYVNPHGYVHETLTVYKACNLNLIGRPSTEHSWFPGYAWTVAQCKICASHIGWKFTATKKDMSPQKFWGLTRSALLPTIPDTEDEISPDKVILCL
assay-details: PROTAC activity at CRBN/GSPT1 in human KG-1 cells assessed as induction of degradation of GSPT1 at 200 nM incubated for 4 hrs by immunoblot analysis relative to control
Format: cell-based
parameter: Activity (%)

Before answering, review these 3 worked examples.
[Q] Query Activity for O=C1CCC(N2Cc3cc(CNC(=O)C4=Cc5cc(F)ccc5OC4)ccc3C2=O)C(=O)N1 (stereo not given)
[A] 53.8

[Q] Query Activity for O=C1CCC(N2Cc3cc(CNC(=O)C4=Cc5cc(OC(F)(F)F)ccc5OC4)ccc3C2=O)C(=O)N1 (stereo not given)
[A] 92.4

[Q] Query Activity for CO/N=C(\Cc1ccc(C)c(Cl)c1)C(=O)NCc1ccc2c(c1)CN(C1CCC(=O)NC1=O)C2=O (stereo not given)
[A] 92.4

P. COc1cc2cc(C(=O)NCc3ccc4c(c3)CN(C3CCC(=O)NC3=O)C4=O)[se]c2cc1OC (stereo not given)
Q. O=C1CCC(N2Cc3cc(CNC(=O)C4=Cc5c(F)cccc5OC4)ccc3C2=O)C(=O)N1 (stereo not given)
[Q] Of the two listed items, P and Q , which carries the larger Activity figure? Kindly state the label of the option you pick.
[A] Q
